system: T1, human CD47 (R & D systems) (human, UniProt Q08722 19-139)
T1 construct: The Octet analyte was bought (R&D Systems); also called Human CD47 antigen; hCD47
protocol_description: BLI (Octet), His-tagged VHH on anti-penta-His tips, soluble human CD47
Measured log10(koff), listed per entry for reference.
Please be aware that the numbers have been log10-transformed from koff in s⁻¹.

Answered cases to consult:
1. A09-08 (VHH, not shown: C-terminal His-tag) VHH: QVQLVESGGGLVQAGGSLRLSCAASGYGVNSYALGWFRQAPGKEREFVAAISRSGGNINYADSAKGRFTISRDNFKNTTYLQMSSLKPEDTAVYYCAAHYLLLPSYISTSTNMYNYWGQGTQVTVSS
-5.68
2. hA09-10 (VHH, also called humanized A09-10; not shown: C-terminal His-tag) VHH: EVQLVESGGGLVQPGGSLRLSCAASGGGRTFSNYALGWFRQAPGKEREFVAAISRSGGNINYADSVKGRFTISRDNAKNTVYLQMSSLRAEDTAVYYCAAHYLLLPSYISTSTNMYNYWGQGTQVTVSS
-5.96
3. A09-61 (VHH, not shown: C-terminal His-tag) VHH: QVQLVESGGGLVQAGGSLRLSCAASGYGVNSYALGWFRQAPGKEREFVAAISRSGGNINYADSAKGRFTISRDNFKNTTYLQMSSLKPEDTAVYYCAAHYLLLPSYISFASKMYNYWGQGTQVTVSS
-3.96
4. A09-10 (VHH, not shown: C-terminal His-tag) VHH: QVQLVESGGGLVQAGGSLRLSCAASGGGRTFSNYALGWFRQAPGKEREFVAAISRSGGNINYADSAKGRFTISRDNFKNTTYLQMSSLKPEDTAVYYCAAHYLLLPSYISTSTNMYNYWGQGTQVTVSS
-5.94
5. A09-31 (VHH, not shown: C-terminal His-tag) VHH: QVQLVESGGGLVQAGGSLRLSCAASGYGVNSYALGWFRQAPGKEREFVAAISRSGGNINYADSAKGRFTISRDNFKNTTYLQMSSLKPEDTAVYYCAAHYLLLPSYIATAIKMYNYWGQGTQVTVSS
-3.28

Now look at this entry.
Ask: Recall and state the measured log10(koff) for A09-006 (VHH, also called A09-06; not shown: C-terminal His-tag) VHH: QVQLVESGGGLVQAGGSLRLSCAASGIRFFGSALGWFRQAPGKEREFVAAISRSGGNINYADSAKGRFTISRDNFKNTTYLQMSSLKPEDTAVYYCAAHYLLLPSYISTSTNMYNYWGQGTQVTVSS .
Result: -5.96
